Record form. Attribute: inhibition. Fill in for each entry.
Target: Serine/threonine-protein kinase STK11 (Homo sapiens) (UniProt Q15831)
Sequence (Q15831 whole entry): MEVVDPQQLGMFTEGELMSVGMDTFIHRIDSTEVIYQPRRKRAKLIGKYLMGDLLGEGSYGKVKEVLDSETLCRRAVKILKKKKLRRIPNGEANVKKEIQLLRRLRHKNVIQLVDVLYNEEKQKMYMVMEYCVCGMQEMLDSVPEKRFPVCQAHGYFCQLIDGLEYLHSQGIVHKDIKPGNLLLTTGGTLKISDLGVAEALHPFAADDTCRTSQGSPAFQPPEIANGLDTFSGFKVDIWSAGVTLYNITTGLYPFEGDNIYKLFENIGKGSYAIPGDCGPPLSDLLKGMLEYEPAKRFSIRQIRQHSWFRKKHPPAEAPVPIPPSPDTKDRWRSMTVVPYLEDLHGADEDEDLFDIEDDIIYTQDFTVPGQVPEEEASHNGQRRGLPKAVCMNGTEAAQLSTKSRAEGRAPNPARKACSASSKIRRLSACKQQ
Test: Inhibition of LKB1 in human PC3 cell lysates at 30 uM using desthiobiotin-tagged ATP probe AX9989 followed by trypsinization by LC/MS analysis
Details: PC-3

query: Given the entry c1ccc2c(c1)nc(NC1CCCCC1)c1nccn12 , report its measured inhibition.
result: < 35%

query: Same read-out for c1ccc(CCNc2nc3ccccc3n3ccnc23)cc1 ?
result: < 35%

query: And the next one, O[C@H]1CC[C@H](Nc2nc3ccccc3n3ccnc23)CC1 ?
result: 45.6%

query: And then c1ccc(CNc2nc3ccccc3n3ccnc23)cc1 , what is it?
result: < 35%

###

Target: Phosphatidylinositol 5-phosphate 4-kinase type-2 gamma (Homo sapiens)
Experiment: Inhibition of PIP4K2C in human PC3 cell lysates at 30 uM using desthiobiotin-tagged ATP probe AX9989 followed by trypsinization by LC/MS analysis
Conditions: PC-3
Please go through the items and note down their inhibition.
Answer format: numeric, % implied, no suffix.

query: Quick one: inhibition for O[C@H]1CC[C@H](Nc2nc3ccccc3n3ccnc23)CC1 ?
result: 50.9

query: Same question, c1ccc(CCNc2nc3ccccc3n3ccnc23)cc1 this time
result: 52.6

###

Give inhibition for every item shown.
Target: Dual specificity mitogen-activated protein kinase kinase 2 (Homo sapiens)
Assay: Inhibition of MAP2K2 in human PC3 cell lysates at 10 uM using desthiobiotin-tagged ATP probe AX9989 followed by trypsinization by LC/MS analysis
Conditions: PC-3

query: // lookup inhibition | system=Dual specificity mitogen-activated protein kinase kinase 2 (Homo sapiens) | key= NC(=O)c1ccc2nc(N[C@H]3CC[C@H](O)CC3)c3nccn3c2c1
result: < 35%

query: Okay, and O=C(NC1(c2ccccc2)CC1)c1ccc2nc(N[C@H]3CC[C@H](O)CC3)c3nccn3c2c1 ?
result: < 35%

query: Moving on to O=C(N[C@H](CO)c1ccccc1)c1ccc2nc(N[C@H]3CC[C@H](O)CC3)c3nccn3c2c1
result: < 35%

query: # repeat for O=C(O)c1ccc2nc(N[C@H]3CC[C@H](O)CC3)c3nccn3c2c1
result: < 35%

query: Request: C[C@@H](NC(=O)c1ccc2nc(N[C@H]3CC[C@H](O)CC3)c3nccn3c2c1)c1ccccc1
result: < 35%

###

Molecular target: CaM kinase II (Homo sapiens) (UniProt Q13557+Q13555+Q13554+Q9UQM7)
Assay: Inhibition of CaMK2alpha/CaMK2beta/CaMK2delta/CaMK2gamma in human PC3 cell lysates at 10 uM using desthiobiotin-tagged ATP probe AX9989 followed by trypsinization by LC/MS analysis
Type: protein assay
Conditions: PC-3
Kindly state inhibition for each of the entries shown.

query: Recorded inhibition of O=C(O)c1ccc2nc(N[C@H]3CC[C@H](O)CC3)c3nccn3c2c1 , please.
result: < 35%

query: How about O=C(NC1(Cc2ccc(F)cc2)CC1)c1ccc2nc(N[C@H]3CC[C@H](O)CC3)c3nccn3c2c1 ?
result: < 35%

query: Let us now turn to C[C@H](NC(=O)c1ccc2nc(N[C@H]3CC[C@H](O)CC3)c3nccn3c2c1)c1ccccc1
result: < 35%

###

Consider the following molecules; for each one, report its inhibition.
Molecular target: Serine/threonine-protein kinase D2 (Homo sapiens)
Assay: Inhibition of PKD2 in human PC3 cell lysates at 10 uM using desthiobiotin-tagged ATP probe AX9989 followed by trypsinization by LC/MS analysis
Details: PC-3

query: Requested field: inhibition. Item: O=C(NC1(c2ccccc2)CCC1)c1ccc2nc(N[C@H]3CC[C@H](O)CC3)c3nccn3c2c1
result: < 35%

query: And what about the molecule O=C(O)c1ccc2nc(N[C@H]3CC[C@H](O)CC3)c3nccn3c2c1 ?
result: < 35%

query: Same again, this time with O=C(NC1(c2ccccc2)CC1)c1ccc2nc(N[C@H]3CC[C@H](O)CC3)c3nccn3c2c1
result: < 35%

query: // repeat for O=C(N[C@H](CO)c1ccccc1)c1ccc2nc(N[C@H]3CC[C@H](O)CC3)c3nccn3c2c1 and report
result: < 35%

query: Please give the result for C[C@H](NC(=O)c1ccc2nc(N[C@H]3CC[C@H](O)CC3)c3nccn3c2c1)c1ccccc1 too.
result: < 35%

query: Next molecule: O=C(NC1(c2ccc(F)cc2)CC1)c1ccc2nc(N[C@H]3CC[C@H](O)CC3)c3nccn3c2c1
result: < 35%

query: // query: CCC[C@@H](NC(=O)c1ccc2nc(N[C@H]3CC[C@H](O)CC3)c3nccn3c2c1)c1ccccc1
result: < 35%

###

Give inhibition for every item shown.
Biological target: EKC/KEOPS complex subunit TP53RK (Homo sapiens)
Experiment: Inhibition of PRPK in human PC3 cell lysates at 10 uM using desthiobiotin-tagged ATP probe AX9989 followed by trypsinization by LC/MS analysis
Settings: PC-3

query: Given the entry CCC[C@@H](NC(=O)c1ccc2nc(N[C@H]3CC[C@H](O)CC3)c3nccn3c2c1)c1ccccc1 , what inhibition was observed with EKC/KEOPS complex subunit TP53RK (Homo sapiens)?
result: < 35%

query: Proceed to C[C@H](NC(=O)c1ccc2nc(N[C@H]3CC[C@H](O)CC3)c3nccn3c2c1)c1ccccc1
result: < 35%

query: And NC(=O)c1ccc2nc(N[C@H]3CC[C@H](O)CC3)c3nccn3c2c1 ?
result: < 35%

query: Follow-up item: O=C(NC1(c2ccc(F)cc2)CC1)c1ccc2nc(N[C@H]3CC[C@H](O)CC3)c3nccn3c2c1
result: < 35%

query: What about this molecule? CC(C)(NC(=O)c1ccc2nc(N[C@H]3CC[C@H](O)CC3)c3nccn3c2c1)c1ccccc1
result: < 35%

query: Would you mind doing O=C(NC1(c2ccccc2)CCC1)c1ccc2nc(N[C@H]3CC[C@H](O)CC3)c3nccn3c2c1 as well?
result: < 35%

query: Next: C[C@@H](NC(=O)c1ccc2nc(N[C@H]3CC[C@H](O)CC3)c3nccn3c2c1)c1ccccc1
result: < 35%

query: Follow-up item: O=C(NC1(Cc2ccc(F)cc2)CC1)c1ccc2nc(N[C@H]3CC[C@H](O)CC3)c3nccn3c2c1
result: < 35%

query: Please do the same for O=C(O)c1ccc2nc(N[C@H]3CC[C@H](O)CC3)c3nccn3c2c1 as well.
result: 86.6%

query: Input O=C(N[C@H](CO)c1ccccc1)c1ccc2nc(N[C@H]3CC[C@H](O)CC3)c3nccn3c2c1
result: < 35%

query: Please give the result for O=C(NC1(c2ccccc2)CC1)c1ccc2nc(N[C@H]3CC[C@H](O)CC3)c3nccn3c2c1 too.
result: < 35%

query: Next entry: CC[C@@H](NC(=O)c1ccc2nc(N[C@H]3CC[C@H](O)CC3)c3nccn3c2c1)c1ccccc1
result: < 35%

###

I'd appreciate it if you could supply inhibition values for the items below.
Target: c-Jun N-terminal kinase, JNK (Homo sapiens) (UniProt P45983+P53779+P45984)
Test: Inhibition of JNK1/JNK2/JNK3 in human PC3 cell lysates at 30 uM using desthiobiotin-tagged ATP probe AX9989 followed by trypsinization by LC/MS analysis
Type: protein assay
Details: PC-3
Report the value in % with no unit label.

query: Recorded inhibition of c1ccc(CCNc2nc3ccccc3n3ccnc23)cc1 , please.
result: 41.6

query: Same for c1ccc2c(c1)nc(NC1CCCCC1)c1nccn12
result: 80.4

query: Another: c1ccc(CNc2nc3ccccc3n3ccnc23)cc1
result: 46.2

query: Please answer likewise for O[C@H]1CC[C@H](Nc2nc3ccccc3n3ccnc23)CC1
result: 97.5

###

Target: Serine/threonine-protein kinase 26 (Homo sapiens)
Assay: Inhibition of MST4 in human PC3 cell lysates at 10 uM using desthiobiotin-tagged ATP probe AX9989 followed by trypsinization by LC/MS analysis
Details: PC-3
property_name: inhibition

query: Hello, I am looking for reported inhibition with Serine/threonine-protein kinase 26 (Homo sapiens) for C[C@@H](NC(=O)c1ccc2nc(N[C@H]3CC[C@H](O)CC3)c3nccn3c2c1)c1ccccc1 . Could you help?
result: < 35%

query: Next record, please: O=C(NC1(c2ccc(F)cc2)CC1)c1ccc2nc(N[C@H]3CC[C@H](O)CC3)c3nccn3c2c1
result: < 35%

query: Same thing, different compound: O=C(NC1(Cc2ccc(F)cc2)CC1)c1ccc2nc(N[C@H]3CC[C@H](O)CC3)c3nccn3c2c1
result: < 35%

###

Target: Casein kinase I delta/epsilon (Homo sapiens) (UniProt P48730+P49674)
Sequence (P48730 whole entry, looked up): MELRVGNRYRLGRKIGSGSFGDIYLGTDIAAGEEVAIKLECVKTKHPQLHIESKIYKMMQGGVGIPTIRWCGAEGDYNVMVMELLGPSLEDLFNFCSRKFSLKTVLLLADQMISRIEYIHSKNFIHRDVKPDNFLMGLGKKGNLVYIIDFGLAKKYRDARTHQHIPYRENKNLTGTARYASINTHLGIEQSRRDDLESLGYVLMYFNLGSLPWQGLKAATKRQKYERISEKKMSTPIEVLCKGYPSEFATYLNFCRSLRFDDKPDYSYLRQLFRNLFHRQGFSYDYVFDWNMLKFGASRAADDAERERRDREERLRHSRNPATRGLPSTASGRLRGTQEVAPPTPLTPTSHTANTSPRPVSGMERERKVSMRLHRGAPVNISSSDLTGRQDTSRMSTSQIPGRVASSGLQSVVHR
Sequence (P49674 whole entry, looked up): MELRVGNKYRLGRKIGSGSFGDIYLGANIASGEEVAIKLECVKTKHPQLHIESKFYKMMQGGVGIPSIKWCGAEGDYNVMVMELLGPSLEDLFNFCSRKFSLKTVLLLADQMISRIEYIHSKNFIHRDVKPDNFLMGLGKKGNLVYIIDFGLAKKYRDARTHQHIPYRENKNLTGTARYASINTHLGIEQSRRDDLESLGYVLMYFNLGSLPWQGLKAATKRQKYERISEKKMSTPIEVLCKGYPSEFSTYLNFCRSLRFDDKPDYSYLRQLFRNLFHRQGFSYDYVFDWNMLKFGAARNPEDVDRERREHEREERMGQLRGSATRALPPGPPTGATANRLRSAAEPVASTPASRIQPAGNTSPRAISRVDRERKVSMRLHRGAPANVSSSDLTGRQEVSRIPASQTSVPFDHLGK
Test: Inhibition of CK1delta/CK1epsilon in human PC3 cell lysates at 10 uM using desthiobiotin-tagged ATP probe AX9989 followed by trypsinization by LC/MS analysis
Type: protein-complex assay
Settings: PC-3
property_name: inhibition

query: # get_value(readout='inhibition', item= C[C@H](NC(=O)c1ccc2nc(N[C@H]3CC[C@H](O)CC3)c3nccn3c2c1)c1ccccc1 )
result: < 35%

query: Now try O=C(NC1(c2ccccc2)CC1)c1ccc2nc(N[C@H]3CC[C@H](O)CC3)c3nccn3c2c1 .
result: < 35%

query: Queued: O=C(O)c1ccc2nc(N[C@H]3CC[C@H](O)CC3)c3nccn3c2c1
result: 81.2%
